Please go through the items and note down their relative viability.
- Tested on: Calu-6
- Test details: relative viability (nuclei count vs DMSO), 5 days (fraction); higher = more cells survive
- Cond: first compound 1 µM

q: # return recorded relative viability for input O=c1cc(N2CCOCC2)oc2c(-c3cccc4c3sc3ccccc34)cccc12 + O=C(c1cc(Cc2n[nH]c(=O)c3ccccc23)ccc1F)N1CCN(C(=O)C2CC2)CC1 [Olaparib] (partner 8 µM)
a: 0.657

q: # return recorded relative viability for input O=c1cc(N2CCOCC2)oc2c(-c3cccc4c3sc3ccccc34)cccc12 + CS(=O)(=O)CCNCc1ccc(-c2ccc3ncnc(Nc4ccc(OCc5cccc(F)c5)c(Cl)c4)c3c2)o1 [Lapatinib] (partner 2 µM)
a: 1.05

q: # return recorded relative viability for input CCN(CC)CCCCNc1ncc2cc(-c3cc(OC)cc(OC)c3)c(NC(=O)NC(C)(C)C)nc2n1 + O=C(c1cc(Cc2n[nH]c(=O)c3ccccc23)ccc1F)N1CCN(C(=O)C2CC2)CC1 [Olaparib] (partner 8 µM)
a: 0.556

q: # return recorded relative viability for input CCN(CC)CCCCNc1ncc2cc(-c3cc(OC)cc(OC)c3)c(NC(=O)NC(C)(C)C)nc2n1 + CC1(C)CCC(c2ccc(Cl)cc2)=C(CN2CCN(c3ccc(C(=O)NS(=O)(=O)c4ccc(N[C@H](CCN5CCOCC5)CSc5ccccc5)c(S(=O)(=O)C(F)(F)F)c4)cc3)CC2)C1 [Navitoclax] (partner 0.5 µM)
a: 0.748

q: # return recorded relative viability for input O=c1cc(N2CCOCC2)oc2c(-c3cccc4c3sc3ccccc34)cccc12 + CC1(C)CCC(c2ccc(Cl)cc2)=C(CN2CCN(c3ccc(C(=O)NS(=O)(=O)c4ccc(N[C@H](CCN5CCOCC5)CSc5ccccc5)c(S(=O)(=O)C(F)(F)F)c4)cc3)CC2)C1 [Navitoclax] (partner 0.5 µM)
a: 0.933

====

- Test system: NCI-H647
- Test details: relative viability (nuclei count vs DMSO), 5 days (fraction); higher = more cells survive
- Cond: first compound 2 µM
# if measured relative viability < 0.4: true  # else: false

q: API: query returns whether the molecule falls strictly under 0.4 in relative viability. Query: COCC1(CO)C(=O)C2CCN1CC2 (stereo not given) [PRIMA-1MET] + CC1(C)CCC(c2ccc(Cl)cc2)=C(CN2CCN(c3ccc(C(=O)NS(=O)(=O)c4ccc(N[C@H](CCN5CCOCC5)CSc5ccccc5)c(S(=O)(=O)C(F)(F)F)c4)cc3)CC2)C1 [Navitoclax] (partner 0.5 µM)
a: false

q: API: query returns whether the molecule falls strictly under 0.4 in relative viability. Query: COCC1(CO)C(=O)C2CCN1CC2 (stereo not given) [PRIMA-1MET] + Nc1ncn([C@H]2C[C@H](O)[C@@H](CO)O2)c(=O)n1 [Decitabine] (partner 2 µM)
a: true

q: API: query returns whether the molecule falls strictly under 0.4 in relative viability. Query: COCC1(CO)C(=O)C2CCN1CC2 (stereo not given) [PRIMA-1MET] + C[C@]1(O)C[C@@H](c2nc(-c3ccc4ccc(-c5ccccc5)nc4c3)c3c(N)nccn32)C1 [Linsitinib] (partner 1 µM)
a: false

q: API: query returns whether the molecule falls strictly under 0.4 in relative viability. Query: COCC1(CO)C(=O)C2CCN1CC2 (stereo not given) [PRIMA-1MET] + O=C(c1cc(Cc2n[nH]c(=O)c3ccccc23)ccc1F)N1CCN(C(=O)C2CC2)CC1 [Olaparib] (partner 8 µM)
a: false

q: API: query returns whether the molecule falls strictly under 0.4 in relative viability. Query: COCC1(CO)C(=O)C2CCN1CC2 (stereo not given) [PRIMA-1MET] + CC(=O)Nc1cccc(-n2c(=O)n(C3CC3)c(=O)c3c(Nc4ccc(I)cc4F)n(C)c(=O)c(C)c32)c1 [Trametinib] (partner 0.02 µM)
a: true

====

- Test system: NCI-H838
- Test details: relative viability (nuclei count vs DMSO), 5 days (fraction); higher = more cells survive
- Cond: first compound 2.53 µM
Observed property: relative viability
Give your answer as a number; write no unit.

q: # return recorded relative viability for input COc1nc(C)cnc1NS(=O)(=O)c1cccnc1-c1ccc(-c2nnco2)cc1 [Zibotentan] + O=C(c1cc(Cc2n[nH]c(=O)c3ccccc23)ccc1F)N1CCN(C(=O)C2CC2)CC1 [Olaparib] (partner 8 µM)
a: 0.849

q: # return recorded relative viability for input O=c1cc(-c2cccc3c2Sc2ccccc2S3)oc(N2CCOCC2)c1 + CC(C)C[C@H](NC(=O)[C@H](Cc1ccccc1)NC(=O)c1cnccn1)B(O)O [Bortezomib] (partner 0.002 µM)
a: 0.693

q: # return recorded relative viability for input O=c1cc(-c2cccc3c2Sc2ccccc2S3)oc(N2CCOCC2)c1 + Nc1ncn([C@H]2C[C@H](O)[C@@H](CO)O2)c(=O)n1 [Decitabine] (partner 2 µM)
a: 0.452

====

- System: EMC-BAC-2
- Test details: relative viability (nuclei count vs DMSO), 5 days (fraction); higher = more cells survive
- Cond: first compound 0.253 µM
Observed property: relative viability

q: # return recorded relative viability for input O=c1cc(-c2cccc3c2Sc2ccccc2S3)oc(N2CCOCC2)c1 + Nc1nc2[nH]cc(CCc3ccc(C(=O)N[C@@H](CCC(=O)O)C(=O)O)cc3)c2c(=O)[nH]1 [Pemetrexed] (partner 0.2 µM)
a: 0.473

q: # return recorded relative viability for input O=c1cc(-c2cccc3c2Sc2ccccc2S3)oc(N2CCOCC2)c1 + CC1(C)CCC(c2ccc(Cl)cc2)=C(CN2CCN(c3ccc(C(=O)NS(=O)(=O)c4ccc(N[C@H](CCN5CCOCC5)CSc5ccccc5)c(S(=O)(=O)C(F)(F)F)c4)cc3)CC2)C1 [Navitoclax] (partner 0.5 µM)
a: 1.41

q: # return recorded relative viability for input O=c1cc(-c2cccc3c2Sc2ccccc2S3)oc(N2CCOCC2)c1 + O=C(c1cc(Cc2n[nH]c(=O)c3ccccc23)ccc1F)N1CCN(C(=O)C2CC2)CC1 [Olaparib] (partner 8 µM)
a: 0.568

====

- System: SK-LU-1
- Test details: relative viability (nuclei count vs DMSO), 5 days (fraction); higher = more cells survive
- Cond: first compound 0.6325 µM
Observed property: relative viability
Give your answer as a number; write no unit.

q: # return recorded relative viability for input COCC1(CO)C(=O)C2CCN1CC2 (stereo not drawn) [PRIMA-1MET] + Cc1nc(Nc2ncc(C(=O)Nc3c(C)cccc3Cl)s2)cc(N2CCN(CCO)CC2)n1 [Dasatinib] (partner 0.075 µM)
a: 0.177

q: # return recorded relative viability for input COCC1(CO)C(=O)C2CCN1CC2 (stereo not drawn) [PRIMA-1MET] + N=C(N)NC(=N)NCCc1ccccc1 [Phenformin] (partner 250 µM)
a: 0.559

q: # return recorded relative viability for input COCC1(CO)C(=O)C2CCN1CC2 (stereo not drawn) [PRIMA-1MET] + CS(=O)(=O)N1CCN(Cc2cc3nc(-c4cccc5[nH]ncc45)nc(N4CCOCC4)c3s2)CC1 [Pictilisib] (partner 1 µM)
a: 0.549

====

- Tested on: Calu-6
- Test details: relative viability (nuclei count vs DMSO), 5 days (fraction); higher = more cells survive
- Cond: first compound 0.08 µM
Observed property: relative viability
Give your answer as a number; write no unit.

q: # return recorded relative viability for input COc1nc(C)cnc1NS(=O)(=O)c1cccnc1-c1ccc(-c2nnco2)cc1 [Zibotentan] + CC(C)C[C@H](NC(=O)[C@H](Cc1ccccc1)NC(=O)c1cnccn1)B(O)O [Bortezomib] (partner 0.002 µM)
a: 0.929

q: # return recorded relative viability for input O=c1cc(-c2cccc3c2Sc2ccccc2S3)oc(N2CCOCC2)c1 + COc1cc2c(Oc3ccc(NC(=O)C4(C(=O)Nc5ccc(F)cc5)CC4)cc3F)ccnc2cc1OCCCN1CCOCC1 [Foretinib] (partner 0.25 µM)
a: 0.916

q: # return recorded relative viability for input COc1nc(C)cnc1NS(=O)(=O)c1cccnc1-c1ccc(-c2nnco2)cc1 [Zibotentan] + Cc1nc(NC(=O)N2CCC[C@H]2C(N)=O)sc1-c1ccnc(C(C)(C)C(F)(F)F)c1 [Alpelisib] (partner 2 µM)
a: 1

q: # return recorded relative viability for input O=c1cc(-c2cccc3c2Sc2ccccc2S3)oc(N2CCOCC2)c1 + O=C(c1cc(Cc2n[nH]c(=O)c3ccccc23)ccc1F)N1CCN(C(=O)C2CC2)CC1 [Olaparib] (partner 8 µM)
a: 0.63

q: # return recorded relative viability for input COc1nc(C)cnc1NS(=O)(=O)c1cccnc1-c1ccc(-c2nnco2)cc1 [Zibotentan] + O=C(c1cc(Cc2n[nH]c(=O)c3ccccc23)ccc1F)N1CCN(C(=O)C2CC2)CC1 [Olaparib] (partner 8 µM)
a: 0.61

q: # return recorded relative viability for input O=c1cc(-c2cccc3c2Sc2ccccc2S3)oc(N2CCOCC2)c1 + C[C@@H](Oc1cc(-c2cnn(C3CCNCC3)c2)cnc1N)c1c(Cl)ccc(F)c1Cl [Crizotinib] (partner 1 µM)
a: 0.725
